target: partially purified rat brain farnesyl protein transferase (FPT) (Rattus norvegicus, UniProt Q02293+Q04631); construct: partially purified rat brain farnesyl protein transferase (FPT); assay: In vitro enzyme assay: inhibition of Ras-CVLS farnesylation by farnesyl protein transferase
Kindly supply the reported pIC50 values for the records listed here.
# pIC50 is unitless: minus log10 of the molar concentration; print number only

Documented pIC50 of Cc1ccc(C)c2c1CCc1cc(Br)cnc1C2N1CCN(C(=O)Cc2cc[n+]([O-])cc2)CC1 (racemic) : 6.89

Cc1cccc2c1CCc1cc(Br)cnc1C2N1CCN(C(=O)Cc2cc[n+]([O-])cc2)CC1 (racemic) yielded pIC50 of 6.96

// pIC50 value for COc1cc(C)cc2c1C(C1CCN(C(=O)Cc3cc[n+]([O-])cc3)CC1)c1ncc(Br)cc1CC2 (single isomer, unassigned; (-)) [Example 25] : 6.66

Every entry's value here was drawn from patent US6440989B2.
